Molecular target: OsWOX13 (Oryza sativa, UniProt Q5QMM3 1-267)
Sequence: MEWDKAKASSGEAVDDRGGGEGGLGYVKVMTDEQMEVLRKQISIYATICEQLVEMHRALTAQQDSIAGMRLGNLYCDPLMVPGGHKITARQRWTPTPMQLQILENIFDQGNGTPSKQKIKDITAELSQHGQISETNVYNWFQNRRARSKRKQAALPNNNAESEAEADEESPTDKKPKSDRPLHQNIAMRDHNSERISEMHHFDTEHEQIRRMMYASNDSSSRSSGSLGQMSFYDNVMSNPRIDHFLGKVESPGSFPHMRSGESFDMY
Test: protein-binding microarray (RPBM); PBS, 2% BSA, 51.3 ng/ul salmon testes DNA, 50 uM zinc acetate, 200 nM TF, 25 C, 1 h; high values mean tight binding
Settings: protein: recombinant; tags: N-terminal polyhistidine and DsRed monomer fusion (pET32a); label: CyDye5-dUTP incorporated in the synthesized complementary strand; 3' TTTTT single-stranded linker to array surface; dsDNA, one strand shown
In all, about 35,000 sequences were measured (“fluorescence intensity (a.u.)”: median about 10,000, highest 2% from about 52,000 on). The list comes from a sample in which the highest values are over-represented; it also holds close analogues and randomly drawn sequences.
Observed property: binding signal

Recorded results for 4 sequences are shown here.
CTGTAATCTTGCTGATTGAATTCTATTTTGATGTGCAGAGCGGAGTCACCTAGTGCAG
44800 fluorescence intensity (a.u.)
TGATAGATGGAAAATAAATTGGTAAAATTAGTAGATGGGACGGAGTCACCTAGTGCAG
39700 fluorescence intensity (a.u.)
AATTGCGTGATTGTGCTAATCAAAATGCAGAATTGGATATCGGAGTCACCTAGTGCAG
23000 fluorescence intensity (a.u.)
CTTAACTTTAAATATATAATTTTATAATAATTTTACGTTGCGGAGTCACCTAGTGCAG
17500 fluorescence intensity (a.u.)

Query :: # get_value(readout='binding signal', item= GTATGTGATTTTCTTTAATTAGAGTTCTTGCCTAAGGTTGCGGAGTCACCTAGTGCAG )
Result :: 38300 fluorescence intensity (a.u.)

Query :: Sample ATTCCTAAAATTATATGAATTTATGAGAAATTACGTAATGCGGAGTCACCTAGTGCAG — what was its binding signal?
Result :: 4300 fluorescence intensity (a.u.)

Query :: Fill in: binding signal of AGACGCATCTCCTCAATCATGCATCAACGTGCGTCATCTGCGGAGTCACCTAGTGCAG is ___
Result :: 3790 fluorescence intensity (a.u.)

Query :: I am curious: what binding signal value has been reported for AAACTAACCAGGATCTGGTAATTGGAACGATCCCCATTCCCGGAGTCACCTAGTGCAG ?
Result :: 4390 fluorescence intensity (a.u.)

Query :: Query (sequence): CGTACCAGCTGATTGATGGTGTCACTCACCAAATGTTCTTCGGAGTCACCTAGTGCAG ; field requested: binding signal
Result :: 34300 fluorescence intensity (a.u.)

###

Target: OsWOX13 (Oryza sativa, UniProt Q5QMM3 1-267)
Sequence: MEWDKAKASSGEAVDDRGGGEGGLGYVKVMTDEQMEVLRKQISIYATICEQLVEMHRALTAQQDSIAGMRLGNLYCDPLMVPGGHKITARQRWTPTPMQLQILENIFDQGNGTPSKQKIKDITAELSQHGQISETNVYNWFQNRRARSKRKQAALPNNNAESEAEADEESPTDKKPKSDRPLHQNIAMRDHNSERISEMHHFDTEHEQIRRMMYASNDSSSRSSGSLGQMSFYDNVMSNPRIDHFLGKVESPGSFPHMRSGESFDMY
Assay: protein-binding microarray (RPBM); PBS, 2% BSA, 51.3 ng/ul salmon testes DNA, 50 uM zinc acetate, 200 nM TF, 25 C, 1 h; high values mean tight binding
Settings: protein: recombinant; tags: N-terminal polyhistidine and DsRed monomer fusion (pET32a); label: CyDye5-dUTP incorporated in the synthesized complementary strand; 3' TTTTT single-stranded linker to array surface; dsDNA, one strand shown
The full ranking holds about 35,000 sequences; the median of “fluorescence intensity (a.u.)” is about 10,000, and the highest 2% start at about 52,000. Shown is part of a subset that was picked to be rich in the highest values.
The following sequences are shown together with reported binding signal values.

AATGTAATGTAACAAATTTGTCTAAAAGGATTGAACTTGGCGGAGTCACCTAGTGCAG
12400 fluorescence intensity (a.u.)
TCCGTGATTAGCCATAAGTGCTACAGTAACCCACATGTGCCGGAGTCACCTAGTGCAG
35800 fluorescence intensity (a.u.)
GTTAACGACCAAAATTGGTAGCATCGACACCTCCCTGGGCCGGAGTCACCTAGTGCAG
4240 fluorescence intensity (a.u.)
CATTGATAGATTGCAAAAGCTAGCTGTCTGGGAGATGGTGCGGAGTCACCTAGTGCAG
49500 fluorescence intensity (a.u.)
GATATGAGTGACTAATTGACTTTGTGTTGATTTCGAGCAGCGGAGTCACCTAGTGCAG
34600 fluorescence intensity (a.u.)
AGAAATTGTGTGATTTATTGTAGTGTGTAGAAATTTATAGCGGAGTCACCTAGTGCAG
11700 fluorescence intensity (a.u.)

Query :: Request the reported binding signal associated with CCTAATTAGTCCATGATTAGTCATAAGTACTACAATAACCCGGAGTCACCTAGTGCAG
Result :: 33900 fluorescence intensity (a.u.)

Query :: State the recorded binding signal for this entry: TGGAGAGTTTTGATTGGTTGGGAAGAGAATGTTGATAGAGCGGAGTCACCTAGTGCAG
Result :: 20200 fluorescence intensity (a.u.)

Query :: Any idea what binding signal was measured for CCGTGATTAGCCATAAGTGCTACAGTAACCCACATGTGCTCGGAGTCACCTAGTGCAG ?
Result :: 57900 fluorescence intensity (a.u.)

Query :: # get_value(readout='binding signal', item= TTAATTTACCGGATTCAATATTCCATATTTAGAAGTCACCCGGAGTCACCTAGTGCAG )
Result :: 3350 fluorescence intensity (a.u.)

Query :: If you can, please state the reported binding signal value of CCTGACAGGTCATCTCCTGATTGAAACCAAAATGTTGGATCGGAGTCACCTAGTGCAG .
Result :: 60700 fluorescence intensity (a.u.)

Query :: Need binding signal of TTGGTGATATTGATGGAGCATGTTTTATTTGATAGAATAGCGGAGTCACCTAGTGCAG , thanks.
Result :: 3390 fluorescence intensity (a.u.)

Query :: Could you share which binding signal value was measured for GTCAAATTTATGGCATTGATAGAGTTTTAGTAGGGGTGTTCGGAGTCACCTAGTGCAG ?
Result :: 21000 fluorescence intensity (a.u.)

Query :: # input sequence: GTTGATGATGTGGCTTCTTGCTTGTCTTGCTTTATAGGAGCGGAGTCACCTAGTGCAG ; wanted: its binding signal
Result :: 5720 fluorescence intensity (a.u.)

Query :: Entry under review: GTATGATTGGTTATGTAAAGTTTGTTTCTTGTTCTAGAGGCGGAGTCACCTAGTGCAG . Reported binding signal?
Result :: 58400 fluorescence intensity (a.u.)

Query :: Can you look up the measured binding signal of CCAATTGACTATATATAACATAGTACTTGCTAGCTTAATTCGGAGTCACCTAGTGCAG for me?
Result :: 3640 fluorescence intensity (a.u.)

Query :: Given the entry TATATTATTTGTCAATCTTATTGTCAACTTATTAATCATCCGGAGTCACCTAGTGCAG , report its measured binding signal.
Result :: 7160 fluorescence intensity (a.u.)
